Attribute: composite z-score
assay remarks: probe aEGFR binding to arrayed compounds – biochemical, biotinylated probe, 635/667 nm fluorescence, primary screen (AID 1097);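 also: probe is a biotinylated anti-EGFR antibody binding compounds printed on slides; score combines fluorescence near 667 nm and signal to noise of each spot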
experimental conditions: small-molecule microarray, higher = more signal

Sample records with composite z-score:
# smiles repr, composite z-score
rows = [
    ("CN(C)CCCC[C@@H]1NC(=O)[C@H]2C[C@@H](C(=O)O)[C@@H](c3ccc(O)cc3)N2C1=O", 1.33),
    ("[N-]=[N+]=NCc1ccccc1[C@@H]1OC(c2ccc(OCCCO)cc2)=N[C@]1(Cc1ccccc1N=[N+]=[N-])C(=O)O", 0.439),
]

Consider the record given below.
# input compound: C=CCOC(=O)[C@H]1[C@@H]2C(=O)O[C@@H](c3ccccc3)[C@@H](c3ccccc3)N2[C@@H](c2ccc(OCCOC(=O)[C@@H]3C[C@@H]4C(=O)N[C@@H](CCCCNC(C)=O)C(=O)N4[C@@H]3c3cccc(OCCO)c3)cc2)[C@]12C(=O)Nc1ccccc12 ; wanted: its composite z-score
-0.0103

###

assay remarks: probe aInhba binding on compound microarray – biochemical, small-molecule microarray, 635/667 nm fluorescence, primary screen (AID 1148);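 also: score merges 667nm spot fluorescence with signal-to-noise for antibody binding to printed compounds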
experimental conditions: higher = more signal
I would appreciate it if you labelled entries label 1 when composite z-score is 0.01 or higher, otherwise label 0.

Example results:
# molecule, group label
rows = [
    ("COc1ccc([Si](C)(C)[C@H]2[C@H](CCO)O[C@@]3(C(=O)N(Cc4cccc(N5C(=O)c6ccccc6Oc6ccccc65)c4)c4ccccc43)[C@@H]2C)cc1", "label 0"),
    ("CC(C)=CCCC=C(C)C(O)C1C=CC2C(=O)N(c3ccccc3)C(=O)C2N1Nc1ccc(C#N)cc1 (configuration not stated)", "label 1"),
    ("NC(=O)N1C(=O)C2C(C1=O)C1C=C(CCCO)C2C(C2CC2)N1Cc1sc2ccccc2c1Cl (configuration not stated)", "label 0"),
    ("CC[C@@H]1C=C(C(=O)O)[C@H](c2ccc(OC)cc2)N1S(=O)(=O)c1ccc(C)cc1", "label 0"),
    ("COC(=O)[C@@]1(Cc2ccccc2)[C@H]2c3cc(C(=O)N(C)C)n(Cc4ccc(S(C)(=O)=O)cc4)c3C[C@H]2CN1C(=O)c1ccccc1", "label 1"),
]

Answer whether composite z-score of O=C1C[C@@](C(=O)NC2CC2)(c2ccc([N+](=O)[O-])cc2)[C@@H](c2ccc(CO)cc2)N1C1CCCCC1 is greater than or equal to 0.01.
label 0

composite z-score >= 0.01 for O=C1O[C@H](c2ccccc2)[C@H](c2ccccc2)N2[C@H]1[C@@H](C(=O)N1CCN(c3ncccn3)CC1)[C@]1(C(=O)Nc3ccc(C#CCCO)cc31)[C@H]2c1ccc(O)cc1 ?
label 1

###

measurement target: Carbonic anhydrase 2 (Homo sapiens)
assay remarks: compounds binding carbonic anhydrase 2 – biochemical, small-molecule microarray, Alexa647-labelled CAII, profiling panel (AID 1122)
experimental conditions: CAII-A647 binding fluorescence, higher = more signal
Would you please tag the item label 1 when its composite z-score is 0.7 or above, and label 0 when it is below?

Worked examples follow.
# compound, measurement target, group label
rows = [
    ("COC(=O)c1cccc([C@H]2OC(=CC(=O)OC(C)C)C[C@@H](c3cccc(C(=O)OC)c3)O2)c1", "Carbonic anhydrase 2 (Homo sapiens)", "label 1"),
    ("C=CC1c2cc(O)c(OC)cc2CCN1C (stereo not given)", "Carbonic anhydrase 2 (Homo sapiens)", "label 1"),
    ("[N-]=[N+]=NCc1ccccc1[C@@H]1OC(c2ccc(OCCCO)cc2)=N[C@]1(Cc1ccccc1N=[N+]=[N-])C(=O)NCC(O)CO (stereo not given in full)", "Carbonic anhydrase 2 (Homo sapiens)", "label 0"),
    ("O=C1c2ccccc2[C@@]2(Cc3ccccc3N(Cc3ccccc3)C2=O)[C@H](c2ccc(CO)cc2)N1Cc1ccccc1Cl", "Carbonic anhydrase 2 (Homo sapiens)", "label 0"),
]

Please look at the following compound next.
Could you please find out whether CCC(CC)C(O)C1C=CC2C(=O)N(c3ccccc3)C(=O)C2N1Nc1ccccc1F (stereo not given) has composite z-score that meets 0.7 or exceeds it?
label 0

###

assay remarks: probe aInhba binding on compound microarray – biochemical, small-molecule microarray, 635/667 nm fluorescence, primary screen (AID 1148);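 also: score merges 667nm spot fluorescence with signal-to-noise for antibody binding to printed compounds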
experimental conditions: higher = more signal
test readout: composite z-score
Enter a number only.

# compound, test readout, reported measurement
records = [
    ("CCCCC(O)C1C=CC2C(=O)N(c3ccccc3)C(=O)C2N1Nc1ccc(C#N)cc1 (stereo not drawn)", "composite z-score", 0.545),
    ("CC(C)C(O)C1C=CC2C(=O)NC(=O)C2N1Nc1ccccn1 (stereo not drawn)", "composite z-score", -0.0421),
    ("CCOC(=O)C[C@H]1[C@H](OC(=O)c2ccccc2-c2ccccc2)[C@@H](NC(=O)c2ccc3ccccc3c2)c2cc(OCCCO)ccc2N1C(=O)Cc1ccc(OC)cc1", "composite z-score", -0.128),
    ("O=C1O[C@@H](c2ccccc2)[C@@H](c2ccccc2)N2[C@@H](c3ccc(OCCO)cc3)[C@]3(C(=O)Nc4ccc(C#CC5(O)CCCCCC5)cc43)[C@@H](C(=O)Nc3nc4ccccc4s3)[C@H]12", "composite z-score", 0.0945),
    ("CC(=O)NCCCC[C@@H]1NC(=O)[C@H]2C[C@@H](C(=O)NCCCCCCNC(=O)CS)[C@@H](c3cccc(OCCO)c3)N2C1=O", "composite z-score", -0.0448),
]

Can you look up the measured composite z-score of COc1ccc([Si](C)(C)[C@@H]2[C@@H](CC(=O)N3CCC[C@H]3CO)O[C@]3(C(=O)N(Cc4cccc(N5CCCCC5=O)c4)c4ccccc43)[C@H]2C)cc1 for me?
-0.176

###

assay remarks: probe aLAP1 signal on lysate-treated microarray – cell lysate, small-molecule microarray, COS7 lysate, primary screen (AID 1124);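 also: lysate comes from COS7 cells expressing LAP1 and is applied at 0.3 µg/mL; score merges spot fluorescence near 667 nm with signal-to-noise over triplicate slides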
experimental conditions: probe aLAP1, fluorescence, higher = more signal
test readout: composite z-score

Worked examples follow.
# compound, reported measurement
measured = [
    ("COCCOC(=O)N1C(=O)[C@@]2(c3cc(C#CCC(C(=O)OC)C(=O)OC)ccc31)[C@H](C(=O)Nc1nc3ccccc3s1)[C@H]1C(=O)O[C@H](c3ccccc3)[C@H](c3ccccc3)N1[C@@H]2c1ccc(OCCO)cc1", 0.705),
    ("C=CC1c2cc(O)c(OC)cc2CCN1C (stereo not drawn)", 0.0879),
]

Quick check: composite z-score of C=CCC(OC(C)=O)[C@@H]1[C@@H](N(Cc2cccc3ccccc23)C(=O)c2ccc(-c3ccccc3)cc2)c2cc(OCCCO)ccc2N1C(=O)Cc1ccc2ccccc2c1 (stereo partly drawn) ?
0.0109

###

assay remarks: Pseudomonas biofilm growth suppression – PAO1 strain, BacTiter-Glo luminescence, LB-PBS, primary screen (AID 1144)
experimental conditions: P. aeruginosa PAO1 biofilm, 12 h, higher = more signal
Parameter z-score: see the listing below.
// no unit string in output, number only

Consider the reported z-score for these compounds:
# compound, z-score
records = [
    ("COCCCN1C(=O)[C@@]2(c3ccc([N+](=O)[O-])cc3)CC(=O)N(CC34CC5CC(CC(C5)C3)C4)[C@@H]2c2ccc(CO)cc21", -0.453),
    ("COc1ccc([Si](C)(C)[C@@H]2[C@@H](CC(=O)N3CCC[C@H]3CO)O[C@]3(C(=O)N(Cc4cccc(N5CCCCC5=O)c4)c4ccccc43)[C@H]2C)cc1", -0.331),
    ("CC(C)(C)N1CC=CC23O[C@@H]4C=CCCOC(=O)C4[C@H]2C(=O)N(CCCCCCO)[C@@H]3C1=O (stereo not given in full)", 0.595),
    ("COc1ccc([Si](C)(C)[C@H]2[C@H](CCO)O[C@@]3(C(=O)N(Cc4ccc(NC(=O)[C@H](C)O)cc4)c4ccccc43)[C@@H]2C)cc1", -0.159),
    ("O=C(NC1CC1)[C@@H]1c2ccccc2C(=O)N(Cc2ccc(OC(F)(F)F)cc2)[C@H]1c1ccc(CO)cc1", -1.32),
]

Continue with the next compound.
Would you mind telling me what z-score value was observed for C=C(COC)/C(=C/C[C@H](OC(C)=O)c1ccccc1OCCO)c1cc(C(=O)OC)ccc1OC ?
0.0472

###

assay remarks: viability profiling in MM1S myeloma cells – cell-based, resazurin fluorescence, basal, 24 h, PK04 Diversity Set, profiling panel (AID 1174);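 also: MM1S multiple myeloma cell line; test concentration not given here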
experimental conditions: higher = more signal, called active from +8 up or from −8 down
Each item that follows carries a reported z-score.
# output: bare number, no unit

// below: answered compounds
# compound, reported measurement
data = [
    ("COC(=O)[C@]1(CCC(=O)OC(C)(C)C)N=C(c2ccc(OCCCO)cc2)O[C@@H]1c1ccccc1N=[N+]=[N-]", -2.56),
    ("C=CCC(OC(C)=O)[C@@H]1[C@@H](N(Cc2ccc(-c3ccccc3)cc2)C(=O)c2cccc3ccccc23)c2cc(OCCCO)ccc2N1C(=O)Cc1ccc(OC)cc1 (some centres undefined)", -0.572),
    ("COc1ccc([Si](C)(C)[C@H]2[C@H](CC(=O)N3CCC[C@H]3CO)O[C@@]3(C(=O)N(Cc4ccc(N5CCCCC5=O)cc4)c4ccccc43)[C@@H]2C)cc1", -0.563),
]

Name the reported z-score value associated with the compound NCCCCCCNC(=O)[C@@H]1C[C@@H]2C(=O)N3CCC[C@H]3C(=O)N2[C@@H]1c1cccc(OCCO)c1
0.711
